Target under test: T1, recombinant extracellular domain (ECD) of human TF, amino acid 1-219 of the mature chain, C-terminal His6-tag (human, UniProt P13726 33-251)
T1 construct: expressed in a mammalian system; used for ELISA and Biacore; biotinylated by NHS-ester for the Fab ELISA; also called His6-TF-ECD1-219; HumanTF1-219
Protocol: Biacore
Attribute measured: koff (s⁻¹)
// units = s⁻¹; emit number, no label

Below, each entry is followed by its recorded koff result.
M1613 (antibody, V domains shown, complete MAb; FR4 is its own entry; also called H136/L3) VH: EVQLVQSGAEVKKPGESLRISCKGSGYTFSSHWIEWVRQMPGKGLEWMGDILPGSGFTHYSPSFQGHVTISADKSISTAYLKWSSLKASDTAMYYCARSGYYGNSGFAYWGQGTLVTVSS VL: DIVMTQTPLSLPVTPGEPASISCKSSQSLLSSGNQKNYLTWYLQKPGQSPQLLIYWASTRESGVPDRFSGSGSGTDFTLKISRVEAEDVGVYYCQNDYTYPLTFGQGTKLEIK | 7e-05
M58 (antibody, V domains shown, complete MAb; FR4 is its own entry; also called H22/L2) VH: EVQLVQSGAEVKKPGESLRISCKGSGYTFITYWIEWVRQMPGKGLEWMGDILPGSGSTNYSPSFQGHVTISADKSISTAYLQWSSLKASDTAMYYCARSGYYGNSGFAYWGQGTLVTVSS VL: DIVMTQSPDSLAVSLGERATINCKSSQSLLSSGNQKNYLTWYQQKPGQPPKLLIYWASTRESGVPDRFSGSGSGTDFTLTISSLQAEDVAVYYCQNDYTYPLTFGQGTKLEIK | 1.8e-05

Req: I have this binder here, M1586 (antibody, V domains shown, complete MAb; FR4 is its own entry; also called H164/L3) VH: EVQLVQSGAEVKKPGESLRISCKGSGYTFPTYWIEWVRQMPGKGLEWMGDIIPGTGWTNYSPSFQGHVTISADKSISTAYLQWSSLKASDTAMYYCARSGYYGNSGFAYWGQGTLVTVSS VL: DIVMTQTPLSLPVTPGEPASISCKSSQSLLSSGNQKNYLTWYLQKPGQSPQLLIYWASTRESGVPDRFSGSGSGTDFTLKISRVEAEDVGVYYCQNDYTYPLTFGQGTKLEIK , and I need its recorded koff.
Resp: 0.000143
